Tested on: Plasmodium falciparum
assay.text: GSK_TCMDC: Inhibition of Plasmodium falciparum 3D7 in whole red blood cells, using parasite LDH activity as an index of growth. Test compounds present at 2uM
Format: functional
Assignment: determine reported Inhibition for the given compounds.
Be sure to follow the number with its unit.

Example cases with answers are listed next.
compound	recorded.result
O=C(NCc1ccc(C(F)(F)F)cc1)c1cccc(-c2nnc(-c3cccc(-c4cncnc4)c3)o2)c1	96%
Cl.c1ccc2c(NCCCCCCCCNc3ccnc4ccccc34)ccnc2c1	100%
Cc1cc2ccccc2c(CON2C(=N)N=C(N)NC2(C)C)c1C.Cl	93%
Cc1ccc(O)cc1Nc1ccnc2cc(-c3ccccc3)ccc12.Cl	100%
O=C(NCc1ccccc1)NC1CCN(c2ccnc3cc(Cl)ccc23)C1.O=C(O)C(F)(F)F (stereo unspecified)	94%
Cc1ccccc1C1CCN(C2CCC(NC(=O)C3=Cc4ccccc4OC3)CC2)CC1 (stereo unspecified)	91%
COc1cc(NC2=NS(=O)(=O)c3cc(Cl)ccc3N2C)cc(OC)c1OC.O=C(O)C(F)(F)F	100%
O=C(Nc1ccc(Oc2ccccc2)cc1)N(CCN1CCCC1)Cc1ccc(-c2ccc(CN3CCNCC3)cc2)cc1.O=C(O)C(F)(F)F	88%
COc1ccc(O)cc1Cc1cnc2nc(N)nc(N)c2c1C	92%
CC(=O)Nc1ncc(C(=O)Nc2cccc(-c3ccc(-c4nc5ccccc5[nH]4)cc3)c2)s1	100%

Below is a list of compounds. For each, state its recorded Inhibition.
1. CN(C)Cc1ccc2cc(NC(=O)c3ccc(-c4ccc(Cl)cc4)cc3)ccc2n1.O=C(O)C(F)(F)F
2. Cc1[nH]c2ccc(O)cc2c1C1CCN(CCCCCNC(=O)/C=C/c2ccc(Cl)c(Cl)c2)CC1
3. O=C(NC1CCCCN(Cc2ccccc2O)C1)c1cccc(Cl)c1.O=C(O)C(F)(F)F (stereo unspecified)

1. 86%
2. 100%
3. 86%
